Recorded log P by entry
- Measurement conditions: n-octanol/water, Au by FAAS
Measurement name: log P

| Molecule | Data value |
| --- | --- |
| CC[P+](CC)(CC)[Au-][S]c1ccc([N+](=O)[O-])cc1 [Compound 19] | >3.28 |
| COc1ccc([P+]([Au-][S][C@@H]2OC(COC(C)=O)[C@@H](OC(C)=O)[C@H](OC(C)=O)C2OC(C)=O)(c2ccc(OC)cc2)c2ccc(OC)cc2)cc1 (stereo partly shown) [Compound 34] | >3.03 |
| COc1ccc([P+]([Au-][Cl])(c2ccc(OC)cc2)c2ccc(OC)cc2)cc1 [Compound 28] | >4.09 |
| CC(=O)OCC1O[C@@H]([S][Au-][P+](c2ccccc2)(c2ccccc2)c2ccccc2)C(OC(C)=O)[C@@H](OC(C)=O)[C@@H]1OC(C)=O (stereo partly shown) [Compound 33] | >3.87 |
| CCCC[PH](CCCC)(CCCC)[Au][Cl] [Compound 26, (Tri-n-butylphosphine)gold Chloride] | >3.99 |
| Fc1ccc([PH+](c2ccc(F)cc2)c2ccc(F)cc2)cc1.[Cl][Au] [Compound 29] | >4.04 |
| CC[PH](CC)(CC)[Au][S]c1ccc(C(F)(F)F)cc1 [Compound 20] | >3.18 |
